Target: UniProtKB P11387
Sequence (P11387 whole entry): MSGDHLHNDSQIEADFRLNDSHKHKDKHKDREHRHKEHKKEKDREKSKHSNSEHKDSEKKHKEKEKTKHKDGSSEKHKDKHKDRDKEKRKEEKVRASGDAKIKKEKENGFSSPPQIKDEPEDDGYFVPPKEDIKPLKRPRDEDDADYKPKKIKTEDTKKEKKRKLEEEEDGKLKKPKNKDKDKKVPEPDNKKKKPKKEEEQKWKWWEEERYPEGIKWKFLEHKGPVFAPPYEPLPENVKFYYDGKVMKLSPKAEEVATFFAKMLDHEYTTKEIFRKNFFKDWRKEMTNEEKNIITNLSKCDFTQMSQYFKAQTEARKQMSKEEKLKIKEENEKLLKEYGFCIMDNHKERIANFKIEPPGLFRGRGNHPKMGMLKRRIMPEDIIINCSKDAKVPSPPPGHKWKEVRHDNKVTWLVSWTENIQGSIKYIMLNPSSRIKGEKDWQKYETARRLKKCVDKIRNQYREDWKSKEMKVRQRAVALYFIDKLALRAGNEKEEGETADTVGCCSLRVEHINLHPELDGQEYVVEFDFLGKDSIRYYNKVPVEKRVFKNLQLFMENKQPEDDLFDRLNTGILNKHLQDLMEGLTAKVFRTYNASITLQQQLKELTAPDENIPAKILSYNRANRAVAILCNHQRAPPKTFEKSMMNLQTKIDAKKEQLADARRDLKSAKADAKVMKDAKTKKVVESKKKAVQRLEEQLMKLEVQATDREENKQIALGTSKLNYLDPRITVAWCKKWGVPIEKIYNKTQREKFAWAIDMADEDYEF
Assay: Inhibition of topoisomerase 1 catalytic activity assessed as relaxation of supercoiled plasmid DNA at 100 uM after 30 mins by agarose gel electrophoresis
The source made the active and inactive calls. No cut-off for these calls is given here.
Assign a class; possible classes are t (active), f (inactive)

Recorded results for 4 molecules are shown here.
Molecule	Answer Label
C=C(C)[C@@H]1CC[C@]2(C(O)=S)CC[C@]3(C)[C@H](CC[C@@H]4[C@@]5(C)CC[C@H](O)C(C)(C)[C@@H]5CC[C@]43C)[C@@H]12	f
C=CCNC(=O)O[C@H]1CC[C@]2(C)[C@H]3CC[C@@H]4[C@H]5[C@H](C(=C)C)CC[C@]5(C(=O)O)CC[C@@]4(C)[C@]3(C)CC[C@H]2C1(C)C	f
C=C(C)[C@@H]1CC[C@]2(C(=O)O)CC[C@]3(C)[C@H](CC[C@@H]4[C@@]5(C)CCC(=O)C(C)(C)[C@@H]5CC[C@]43C)[C@@H]12 [BETUNOLIC ACID]	f
C=C(C)[C@@H]1CC[C@]2(C(O)=S)CC[C@]3(C)[C@H](CC[C@@H]4[C@@]5(C)CC[C@H](OP(=S)(S)c6ccc(OC)cc6)C(C)(C)[C@@H]5CC[C@]43C)[C@@H]12 (stereo not given in full)	t

Prompt: What did this assay record as the result for C=C(C)[C@@H]1CC[C@]2(C(=O)NS(=O)(=O)c3ccccc3)CC[C@]3(C)[C@H](CC[C@@H]4[C@@]5(C)CC[C@H](OC(=O)NS(=O)(=O)c6ccccc6)C(C)(C)[C@@H]5CC[C@]43C)[C@@H]12 ?
Completion: t

Prompt: What did this assay record as the result for C[C@H](C=O)[C@@H]1CC[C@]2(C(=O)O)CC[C@]3(C)[C@H](CC[C@@H]4[C@@]5(C)CC[C@H](O)C(C)(C)[C@@H]5CC[C@]43C)[C@@H]12 ?
Completion: t

Prompt: What did this assay record as the result for C=C(C)[C@@H]1CC[C@]2(C(=O)O)CC[C@]3(C)[C@H](CC[C@@H]4[C@@]5(C)CC[C@H](OC(=O)NCc6ccccc6)C(C)(C)[C@@H]5CC[C@]43C)[C@@H]12 ?
Completion: t

Prompt: What did this assay record as the result for C=C(C=O)[C@@H]1CC[C@]2(C(=O)O)CC[C@]3(C)[C@H](CC[C@@H]4[C@@]5(C)CC[C@H](O)C(C)(C)[C@@H]5CC[C@]43C)[C@@H]12 ?
Completion: t

Prompt: What did this assay record as the result for C=C(C)[C@@H]1CC[C@]2(C(=O)O)CC[C@]3(C)[C@H](CC[C@@H]4[C@@]5(C)CC[C@H](OS(=O)(=O)c6ccccc6)C(C)(C)[C@@H]5CC[C@]43C)[C@@H]12 ?
Completion: f

Prompt: What did this assay record as the result for CC1(C)[C@@H](O)CC[C@]2(C)[C@H]3CC[C@@H]4[C@H]5[C@H]([C@]6(C)CO6)CC[C@]5(C(=O)O)CC[C@@]4(C)[C@]3(C)CC[C@@H]12 ?
Completion: f
